- System: Apolipoprotein B (Apo B) (NM_000384)
- protocol_details: Apo B gene expression in Hep3B cells after Lipofectamine 2000 transfection, real-time PCR SYBR green (Example 50)
- Type: cell-based, Homo Sapiens
- condition_info: Complete IC50 data evaluated by SYBR green; Apo B mRNA, Hep3B cells, 24 hours; 3 biological replicates; read-out: IC50
pIC50: −log10 of the molar value. [Rp] = phosphorothioate linkage, Rp; [Sp] = phosphorothioate linkage, Sp
property_label: pIC50

Entry under review: (Rp, Sp, Rp, Sp, Rp, Sp, Rp, Sp, Rp, Sp, Rp, Sp, Rp, Sp, Rp, Sp, Rp, Sp, Rp)-d[GsCsCsTsCsAsGsTsCsTsGsCsTsTsCsGsCsAsCsC] (DNA GCCTCAGTCTGCTTCGCACC; DNA, linkages [Rp][Sp][Rp][Sp][Rp][Sp][Rp][Sp][Rp][Sp][Rp][Sp][Rp][Sp][Rp][Sp][Rp][Sp][Rp] (s phosphorothioate, o phosphodiester), methylation of C not given here) [Oligonucleotide 107] . Reported pIC50? ~8.38

----------
For each record, write down the corresponding pIC50.
- Test system: Apolipoprotein B (Apo B) (NM_000384)
- protocol_details: Apo B gene expression in Hep3B cells after Lipofectamine 2000 transfection, real-time PCR SYBR green (Example 50)
- Type: cell-based, Homo Sapiens
- condition_info: Complete IC50 data evaluated by SYBR green; Apo B mRNA, Hep3B cells, 24 hours; 3 biological replicates; read-out: IC50
[Rp] = phosphorothioate linkage, Rp; [Sp] = phosphorothioate linkage, Sp
Give bare numbers, as −log10 of the molar value.

Examples from the recorded data:
(Sp, Sp, Sp, Rp, Rp, Rp, Rp, Rp, Rp, Rp, Rp, Rp, Rp, Rp, Rp, Rp, Sp, S, Sp)d[GsCsCsTsCsAsGsTsCsTsGsCsTsTsCsGsCsAsCsC] (DNA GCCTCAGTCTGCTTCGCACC; DNA, linkages [Sp]3 [Rp]13 [Sp]3 (s phosphorothioate, o phosphodiester), methylation of C not given here) [Oligonucleotide 109]
8.76
(Sp, Rp, Rp, Sp, Rp, Rp, Sp, Rp, Rp, Sp, Rp, Rp, Sp, Rp, Rp, Sp, Rp, Rp, Sp)-d[GsCsCsTsCsAsGsTsCsTsGsCsTsTsCsGsCsAsCsC] (DNA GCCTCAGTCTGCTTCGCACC; DNA, linkages [Sp][Rp][Rp][Sp][Rp][Rp][Sp][Rp][Rp][Sp][Rp][Rp][Sp][Rp][Rp][Sp][Rp][Rp][Sp] (s phosphorothioate, o phosphodiester), methylation of C not given here) [Oligonucleotide 115]
8.57

Okay, next one:
Entry under review: (Rp, Rp, Rp, Rp, Rp, Sp, Sp, Sp, Sp, Sp, Sp, Sp, Sp, Sp, Rp, Rp, Rp, Rp, Rp)-d[GsCsCsTsCsAsGsTsCsTsGsCsTsTsCsGsCsAsCsC] (DNA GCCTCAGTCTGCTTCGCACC; DNA, linkages [Rp]5 [Sp]9 [Rp]5 (s phosphorothioate, o phosphodiester), methylation of C not given here) [Oligonucleotide 103] . Reported pIC50? 8.24

----------
- System: complementary RNA
- protocol_details: Thermal denaturation experiment (Tm) of DNA strand with complementary RNA (Example 49)
- Assay type: binding
- condition_info: duplex with complementary RNA, equimolar 0.5 μM in 1×PBS; first derivative of 254 nm absorbance curve
Strand notation (5' to 3'): a small letter for the sugar, then the base; units joined by * are phosphorothioate-linked, units joined directly phosphodiester-linked; [ ] holds rarer units or linkages, { } end groups; capitals alone tell only the bases. [Rp] = phosphorothioate linkage, Rp; [Sp] = phosphorothioate linkage, Sp; e = 2'-O-(2-methoxyethyl) (MOE); [5mC] = 5-methylcytosine; d = 2'-deoxy (DNA)
property_label: Tm (° C.) ± 0.5 (°C)
Give bare numbers, in °C.

Examples from the recorded data:
(Rp, Rp, Rp, Rp, Rp, Sp, Sp, Sp, Sp, Sp, Sp, Sp, Sp, Sp, Rp, Rp, Rp, Rp, Rp)-d[GsCsCsTsCsAsGsTsCsTsGsCsTsTsCsGsCsAsCsC] (DNA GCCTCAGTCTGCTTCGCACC; DNA, linkages [Rp]5 [Sp]9 [Rp]5 (s phosphorothioate, o phosphodiester), methylation of C not given here) [Oligonucleotide 103]
63.4
(Rp, Rp, Rp, Sp, Sp, Sp, Sp, Sp, Sp, Sp, Sp, Sp, Sp, Sp, Sp, Sp, Rp, Rp, Rp)-d[GsCsCsTsCsAsGsTsCsTsGsCsTsTsCsGsCsAsCsC] (DNA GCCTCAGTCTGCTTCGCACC; DNA, linkages [Rp]3 [Sp]13 [Rp]3 (s phosphorothioate, o phosphodiester), methylation of C not given here) [Oligonucleotide 110]
62.9
(Rp, Sp, Rp, Sp, Rp, Sp, Rp, Sp, Rp, Sp, Rp, Sp, Rp, Sp, Rp, Sp, Rp, Sp, Rp)-d[GsCsCsTsCsAsGsTsCsTsGsCsTsTsCsGsCsAsCsC] (DNA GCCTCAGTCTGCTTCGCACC; DNA, linkages [Rp][Sp][Rp][Sp][Rp][Sp][Rp][Sp][Rp][Sp][Rp][Sp][Rp][Sp][Rp][Sp][Rp][Sp][Rp] (s phosphorothioate, o phosphodiester), methylation of C not given here) [Oligonucleotide 107]
64.5
(Rp, Sp, Rp, Rp, Sp, Rp, Rp, Sp, Rp, Rp, Sp, Rp, Rp, Sp, Rp, Rp, Sp, Rp, Rp)d[GsCsCsTsCsAsGsTsCsTsGsCsTsTsCsGsCsAsCsC] (DNA dG[Rp]dC[Sp]dC[Rp]dT[Rp]dC[Sp]dA[Rp]dG[Rp]dT[Sp]dC[Rp]dT[Rp]dG[Sp]dC[Rp]dT[Rp]dT[Sp]dC[Rp]dG[Rp]dC[Sp]dA[Rp]dC[Rp]dC) [Oligonucleotide 116]
64.8
(Sp, Sp, Sp, Rp, Rp, Rp, Rp, Rp, Rp, Rp, Rp, Rp, Rp, Rp, Rp, Rp, Sp, S, Sp)d[GsCsCsTsCsAsGsTsCsTsGsCsTsTsCsGsCsAsCsC] (DNA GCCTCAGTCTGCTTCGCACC; DNA, linkages [Sp]3 [Rp]13 [Sp]3 (s phosphorothioate, o phosphodiester), methylation of C not given here) [Oligonucleotide 109]
65.8
(Sp, Rp, Rp, Rp, Rp, Rp, Rp, Rp, Rp, Rp, Rp, Rp, Rp, Rp, Rp, Rp, Rp, Rp, Sp)-d[GsCsCsTsCsAsGsTsCsTsGsCsTsTsCsGsCsAsCsC] (DNA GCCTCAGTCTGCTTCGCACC; DNA, linkages [Sp]1 [Rp]17 [Sp]1 (s phosphorothioate, o phosphodiester), methylation of C not given here) [Oligonucleotide 105]
66.5
(Sp, Rp, Sp, Rp, Sp, Rp, Sp, Rp, Sp, Rp, Sp, Rp, Sp, Rp, Sp, Rp, Sp, Rp, Sp)-d[GsCsCsTsCsAsGsTsCsTsGsCsTsTsCsGsCsAsCsC] (DNA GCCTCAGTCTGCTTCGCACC; DNA, linkages [Sp][Rp][Sp][Rp][Sp][Rp][Sp][Rp][Sp][Rp][Sp][Rp][Sp][Rp][Sp][Rp][Sp][Rp][Sp] (s phosphorothioate, o phosphodiester), methylation of C not given here) [Oligonucleotide 108]
64.8
(Sp, Sp, Sp, Sp, Sp, Rp, Rp, Rp, Rp, Rp, Rp, Rp, Rp, Rp, Sp, Sp, Sp, Sp, Sp)-d[GsCsCsTsCsAsGsTsCsTsGsCsTsTsCsGsCsAsCsC] (DNA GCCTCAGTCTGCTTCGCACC; DNA, linkages [Sp]5 [Rp]9 [Sp]5 (s phosphorothioate, o phosphodiester), methylation of C not given here) [Oligonucleotide 104]
63.5
(Rp, Sp, Sp, Sp, Sp, Sp, Sp, Sp, Sp, Sp, Sp, Sp, Sp, Sp, Sp, Sp, Sp, Sp, Rp)-d[GsCsCsTsCsAsGsTsCsTsGsCsTsTsCsGsCsAsCsC] (DNA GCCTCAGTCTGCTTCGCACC; DNA, linkages [Rp]1 [Sp]17 [Rp]1 (s phosphorothioate, o phosphodiester), methylation of C not given here) [Oligonucleotide 106]
61.8

Okay, next one:
Entry under review: Mipomersen (DNA eG*e[5mC]*e[5mC]*eT*e[5mC]*dA*dG*dT*d[5mC]*dT*dG*d[5mC]*dT*dT*d[5mC]*eG*e[5mC]*eA*e[5mC]*e[5mC]) [Oligonucleotide 120, "Mipomersen, which is a stereorandom oligonucleotide mixture (Oligonucleotides 104, 105 ... compared to 120)", reference compound] . Reported Tm (° C.) ± 0.5? 65.3
